- assay-method-text: Drug repurposing screens with cells derived from glioblastoma tumor samples (AID 1345199); further: potency means the concentration at half of the fitted maximal effect; nearly all actives have a fitted effect of over 40% in size
- stated-conditions: GBM patient neurospheres viability, ATP luminescence, 48 h; tumour line A
Inconclusive results are not listed. Activity calls are given as the source filed them. The call rests on the fitted dose curve; in most records, active means well fitted inhibition curve with a large enough effect; inconclusive means small, poorly fitted or top-dose-only effect; inactive means flat fitted curve, though single readings scatter.
quantity-kind: Potency

Some compounds with recorded Potency:
compound	quantity-kind	test-result
C#C[C@]1(OC(C)=O)CC[C@H]2[C@@H]3CCC4=C[C@@H](OC(C)=O)CC[C@@H]4[C@H]3CC[C@@]21C	Potency	10 µM (active)
CCOC(=O)COc1ccc2c(C)c(CCN(CC)CC)c(=O)oc2c1Cl	Potency	11.2 µM (active)
NC(=O)C(=O)N/N=C/c1ccc([N+](=O)[O-])o1	Potency	35.5 µM (active)
COc1ccc(CN2CCN(C(c3ccc(F)cc3)c3ccc(F)cc3)CC2)c(OC)c1OC	Potency	3.16 µM (active)

Here are 6 compounds. What values of Potency were reported for them?
1. COc1ccc(/C=C/C(=O)c2ccc(OC)cc2OC)cc1
2. OC(CCN1CCCCC1)(c1ccccc1)c1ccccc1
3. CN(C)CCCOc1nn(Cc2ccccc2)c2ccccc12
4. C#C[C@]1(O)CC[C@H]2[C@@H]3CCc4cc(OC5CCCC5)ccc4[C@H]3CC[C@@]21C
5. CCCCOc1ccc(C(=O)CCN2CCCCC2)cc1
6. C[n+]1c2cc(N)ccc2cc2ccc(N)cc21 (tested in a mixture with another compound)

35.5 µM (active)
12.6 µM (active)
1.58 µM (active)
4.47 µM (active)
4.47 µM (active)
35.5 µM (active)

Here are 2 compounds. What values of Potency were reported for them?
1. O=C(COc1ccc(Cl)cc1)N1CCN(Cc2ccc3c(c2)OCO3)CC1
2. Clc1ccc2c(c1)CCc1cccnc1C2=C1CCNCC1

20 µM (active)
5.01 µM (active)

Here are 6 compounds. What values of Potency were reported for them?
1. CNCCC=C1c2ccccc2CCc2ccccc21
2. CC(Cc1ccccc1)(NC(=O)CN)c1ccccc1 (stereo not drawn)
3. Cc1nc2n(c(=O)c1CCN1CCC(c3noc4cc(F)ccc34)CC1)CCC[C@H]2O
4. CCCCCCc1ccc(O)cc1O
5. C[C@]12CC[C@@H]3c4ccc(O)cc4CC[C@H]3[C@@H]1CC[C@@H]2O
6. CCCCN1CCCC1C(=O)Nc1c(C)cc(C)cc1C (stereo not drawn)

1: 6.31 µM (active); 2: 20 µM (active); 3: 15.8 µM (active); 4: 10 µM (active); 5: 31.6 µM (active); 6: 22.4 µM (active)

Here are 5 compounds. What values of Potency were reported for them?
1. CC(=O)c1ccc2c(c1)N(CCCN1CCC(CCO)CC1)c1ccccc1S2
2. C[C@@H](CN(C)C)CN1c2ccccc2Sc2ccccc21
3. CCCCOc1ccc(OCCCN2CCOCC2)cc1
4. CC(=O)Oc1ccc2c(c1)CC[C@@H]1[C@@H]2CC[C@]2(C)[C@@H](O)CC[C@@H]12
5. CCCCS(=O)(=O)N[C@@H](Cc1ccc(OCCCCC2CCNCC2)cc1)C(=O)O

1: 11.2 µM (active); 2: 8.91 µM (active); 3: 4.47 µM (active); 4: 12.6 µM (active); 5: 11.2 µM (active)

Reference source for all entries: PubChem BioAssay (NCATS)
